test system: U251 CNS; experiment: NCI-60 one-dose screen, 48 h (100 = growth as untreated, 0 = no growth, -100 = all killed); details: 10 µM unless noted
About 83,000 compounds went through this panel and 20% of them were active in at least one assay; those are over-represented in the sample as a whole.
assay_metric: growth (%)

1. c1ccc2c(c1)Nc1ccncc1S2 :: 102
2. Cc1ccc(C(=O)N/N=C/c2cccc([N+](=O)[O-])c2)cn1 :: 107
3. COc1cccc(-c2nn(-c3ccccc3)cc2-c2ccnc(N3CCOCC3)c2)c1 :: 96.2
4. COc1ccc(/C=C/c2c(C(=O)/C=C/c3ccc(Cl)cc3)c(C)nc3ccccc23)cc1 :: 19.4

Reference source: PubChem BioAssay (NCI)
